- STUDY TARGET: mUSP18 (Mus musculus)
- Construct: (46-368); His-tag (N); made in house
- Sequence (Q9WTV6 46-368): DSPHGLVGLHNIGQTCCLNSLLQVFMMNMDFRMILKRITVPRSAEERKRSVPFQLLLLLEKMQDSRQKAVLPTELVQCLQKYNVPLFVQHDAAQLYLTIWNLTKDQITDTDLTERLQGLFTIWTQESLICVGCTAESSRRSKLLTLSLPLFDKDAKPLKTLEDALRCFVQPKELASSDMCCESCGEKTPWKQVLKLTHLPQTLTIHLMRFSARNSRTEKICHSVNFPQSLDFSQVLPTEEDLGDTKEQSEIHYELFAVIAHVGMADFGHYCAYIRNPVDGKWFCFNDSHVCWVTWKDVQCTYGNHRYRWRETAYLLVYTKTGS
- EXPERIMENT SUMMARY: High-throughput screening, ISG15ct-RhoMP, single dose 1.25 µM
- Type: biochemical, murine
- CONDITIONS USED: mUSP18 %inhibition; carboxylic acid (CA) with coupling reagents DIC/HOBT; read-out: %inh CA + DIC/HOBT
Hi there, I'd appreciate the recorded inhibition at 1.25 µM for every entry that follows.

Below: 2 molecules and their reported inhibition at 1.25 µM.
MOLECULE | inhibition at 1.25 µM
CC1=NN(c2ccc(C(=O)O)cc2)CC1 [CA155] | 20.8%
O=C(O)Cc1coc(-c2ccccc2)n1 [CA136] | 12.8%

Please state, for each entry, its recorded inhibition at 1.25 µM.
1. O=C(O)c1cccnc1Oc1ccc(Cl)cc1Cl [CA427]
2. CC1CCCCN1S(=O)(=O)c1ccccc1C(=O)O (stereo not drawn) [CA468]
3. Cc1ccc(NS(=O)(=O)c2cccc(C(=O)O)c2)cc1 [CA115]

Ans.
1. -6.68%
2. 7%
3. 6.11%

Qu. What does the record list as inhibition at 1.25 µM for O=C(O)Cc1ccc(-n2cccc2)cc1 [CA391] ?
Ans. 63.9%

Origin of values: paper PMC12668310
